conditions: in THF, 298.15 K
Metric Name: solubility (mole fraction)

>  <Molecule Smiles>
O=C(O)/C=C/C(=O)O.OCCOCCN1CCN(C2=Nc3ccccc3Sc3ccccc32)CC1.OCCOCCN1CCN(C2=Nc3ccccc3Sc3ccccc32)CC1

>  <Experimental Result>
0.00133

$$$$

###

conditions: in n-hexane, 313.15 K
Metric Name: solubility (mole fraction)

>  <Molecule Smiles>
O=C(O)/C=C/C(=O)O.OCCOCCN1CCN(C2=Nc3ccccc3Sc3ccccc32)CC1.OCCOCCN1CCN(C2=Nc3ccccc3Sc3ccccc32)CC1

>  <Metric Name>
solubility (mole fraction)

>  <Experimental Result>
5.15e-05

$$$$

###

conditions: in MIBK, 318.15 K
Metric Name: solubility (mole fraction)

>  <Molecule Smiles>
O=C(O)/C=C/C(=O)O.OCCOCCN1CCN(C2=Nc3ccccc3Sc3ccccc32)CC1.OCCOCCN1CCN(C2=Nc3ccccc3Sc3ccccc32)CC1

>  <Experimental Result>
0.000475

$$$$

###

conditions: in MTBE, 308.15 K
Metric Name: solubility (mole fraction)

>  <Molecule Smiles>
O=C(O)/C=C/C(=O)O.OCCOCCN1CCN(C2=Nc3ccccc3Sc3ccccc32)CC1.OCCOCCN1CCN(C2=Nc3ccccc3Sc3ccccc32)CC1

>  <Metric Name>
solubility (mole fraction)

>  <Experimental Result>
0.00013

$$$$

###

conditions: in MTBE, 283.15 K
Metric Name: solubility (mole fraction)

>  <Molecule Smiles>
O=C(O)/C=C/C(=O)O.OCCOCCN1CCN(C2=Nc3ccccc3Sc3ccccc32)CC1.OCCOCCN1CCN(C2=Nc3ccccc3Sc3ccccc32)CC1

>  <Experimental Result>
4.36e-05

$$$$

###

settings: in toluene, 318.15 K
Metric Name: solubility (mole fraction)

>  <Molecule Smiles>
O=C(O)/C=C/C(=O)O.OCCOCCN1CCN(C2=Nc3ccccc3Sc3ccccc32)CC1.OCCOCCN1CCN(C2=Nc3ccccc3Sc3ccccc32)CC1

>  <Metric Name>
solubility (mole fraction)

>  <Experimental Result>
0.000102

$$$$

###

conditions: in n-propanol, 308.15 K

>  <Molecule Smiles>
O=C(O)/C=C/C(=O)O.OCCOCCN1CCN(C2=Nc3ccccc3Sc3ccccc32)CC1.OCCOCCN1CCN(C2=Nc3ccccc3Sc3ccccc32)CC1

>  <solubility (mole fraction)>
0.000797

$$$$

###

details: in ethyl formate, 323.15 K

>  <Molecule Smiles>
O=C(O)/C=C/C(=O)O.OCCOCCN1CCN(C2=Nc3ccccc3Sc3ccccc32)CC1.OCCOCCN1CCN(C2=Nc3ccccc3Sc3ccccc32)CC1

>  <solubility (mole fraction)>
0.000445

$$$$

###

conditions: in isopropyl acetate, 318.15 K

>  <Molecule Smiles>
O=C(O)/C=C/C(=O)O.OCCOCCN1CCN(C2=Nc3ccccc3Sc3ccccc32)CC1.OCCOCCN1CCN(C2=Nc3ccccc3Sc3ccccc32)CC1

>  <solubility (mole fraction)>
0.000158

$$$$

###

details: in toluene, 298.15 K

>  <Molecule Smiles>
O=C(O)/C=C/C(=O)O.OCCOCCN1CCN(C2=Nc3ccccc3Sc3ccccc32)CC1.OCCOCCN1CCN(C2=Nc3ccccc3Sc3ccccc32)CC1

>  <solubility (mole fraction)>
4.98e-05

$$$$

###

settings: in n-heptane, 293.15 K

>  <Molecule Smiles>
O=C(O)/C=C/C(=O)O.OCCOCCN1CCN(C2=Nc3ccccc3Sc3ccccc32)CC1.OCCOCCN1CCN(C2=Nc3ccccc3Sc3ccccc32)CC1

>  <solubility (mole fraction)>
2.44e-05

$$$$
